test system: Plasmodium berghei; test: Luciferase/luciferin-expressing antifolate-resistant parasites were used to infect a culture of HepG2 cells that were pre-incubated with compounds. Infected hepatocytes emit light due to the luciferase reaction. Assay results are presented as the percent inhibition of light emission compared to control. […]; format: functional; conditions: sporozoite, HEPG2TOX_HILL_SLOPE 1.01, HEPG2TOX_R_SQUARED 0.454, PBLUC_HILL_SLOPE 14.5, PBLUC_R_SQUARED 0.382, read-out: LUCIFERASE INFECTION ASSAY - IC50
Measured attribute: pIC50
Formally, pIC50 is defined as -log10 of the concentration c, with c in mol/L.

Entry under test: O=c1c2cc(Cl)cc(Cl)c2nc(-c2cccc(C(F)(F)F)c2)n1O . Its pIC50 was 5.09

src = ChEMBL document CHEMBL4483862
